Biological target: β-catenin/BCL9 PPI (Homo sapiens)
Construct: Full-length β-catenin (residues 1-781); host or cells: E. coli BL21 DE3
Sequence (P35222 1-781): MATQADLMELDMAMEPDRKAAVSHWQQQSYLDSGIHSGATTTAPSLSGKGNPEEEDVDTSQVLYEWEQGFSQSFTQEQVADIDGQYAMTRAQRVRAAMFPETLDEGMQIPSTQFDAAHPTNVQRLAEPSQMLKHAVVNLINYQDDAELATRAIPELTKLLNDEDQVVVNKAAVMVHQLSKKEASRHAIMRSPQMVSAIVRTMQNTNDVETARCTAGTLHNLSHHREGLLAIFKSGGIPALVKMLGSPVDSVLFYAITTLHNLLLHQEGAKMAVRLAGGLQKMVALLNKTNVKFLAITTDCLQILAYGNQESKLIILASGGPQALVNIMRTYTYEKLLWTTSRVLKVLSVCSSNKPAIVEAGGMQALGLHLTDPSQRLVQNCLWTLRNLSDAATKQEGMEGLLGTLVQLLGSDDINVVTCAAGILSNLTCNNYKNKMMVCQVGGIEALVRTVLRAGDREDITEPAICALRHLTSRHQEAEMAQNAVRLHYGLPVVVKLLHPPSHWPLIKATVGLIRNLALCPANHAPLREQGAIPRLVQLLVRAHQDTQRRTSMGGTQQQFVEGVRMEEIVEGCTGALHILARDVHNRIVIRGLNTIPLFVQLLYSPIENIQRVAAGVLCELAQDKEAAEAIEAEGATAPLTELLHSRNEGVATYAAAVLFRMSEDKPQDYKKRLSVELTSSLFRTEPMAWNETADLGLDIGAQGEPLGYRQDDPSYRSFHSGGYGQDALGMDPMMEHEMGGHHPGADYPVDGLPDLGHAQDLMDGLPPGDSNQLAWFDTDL
Experiment: AlphaScreen competitive inhibition assay of β-catenin/BCL9 PPI
Type: binding
Settings: Table 2, AlphaScreen, inhibitors 27-30 (R- and S-isomers), preliminary
Endpoint Label: IC50

[
  {
    "Mol": "COc1cccc(S(=O)(=O)NC(=O)C(C)(C)Oc2cccc(N3CCC[C@@H](C(=O)N(Cc4ccc(-c5cccs5)cc4)C4CC4)C3)c2)c1",
    "Assay System": "β-catenin/BCL9 PPI (Homo sapiens)",
    "IC50": "≤ 10 µM"
  }
]

Go through the items and report each one's IC50.
1. CC(C)(Oc1cccc(N2CCC[C@@H](C(=O)N(Cc3ccc(-c4cccs4)cc3)C3CC3)C2)c1)C(=O)NS(=O)(=O)c1ccc(C#N)cc1
2. CC(C)(Oc1cccc(N2CCC[C@H](C(=O)N(Cc3ccc(-c4cccs4)cc3)C3CC3)C2)c1)C(=O)NS(=O)(=O)c1ccc(C#N)cc1
3. COc1cccc(S(=O)(=O)NC(=O)C(C)(C)Oc2cccc(N3CCC[C@H](C(=O)N(Cc4ccc(-c5cccs5)cc4)C4CC4)C3)c2)c1

Result:
["≤ 5 µM", "≤ 5 µM", "≤ 5 µM"]
